Target: T1, interleukin 18 binding protein (IL-18BP) (UniProt O95998 31-194); note: unit not given here
T1 sequence (looked up): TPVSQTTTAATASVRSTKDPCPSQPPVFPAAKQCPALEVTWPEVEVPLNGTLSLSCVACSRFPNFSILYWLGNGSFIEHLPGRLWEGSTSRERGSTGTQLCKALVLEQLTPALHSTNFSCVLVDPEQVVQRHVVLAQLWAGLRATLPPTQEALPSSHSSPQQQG
Assay: cell-based or functional assay
Could you please mark True for values of HEK-Blue activity, +100 nM BP, DF-10000 below 0.1 and False for values at or above it?

IL-18 variant T34N, S36Y, D40H, N41T, K53G, S55Y (ligand) YFGKLESKLSVIRNLNDQVLFIDQGNRPLFEDMNDYDMRHTAPRTIFIISMYGDYQPRGMAVTISVKSEKISTLSSENKIISFKEMNPPDNIKDTKSDIIFFQRSVPGHDNKMQFESSSYEGYFLASEKERDLFKLILKKEDELGDRSIMFTVQNED; False
IL-18 variant K53Y, S55V (ligand) YFGKLESKLSVIRNLNDQVLFIDQGNRPLFEDMTDSDMRDNAPRTIFIISMYYDVQPRGMAVTISVKSEKISTLSSENKIISFKEMNPPDNIKDTKSDIIFFQRSVPGHDNKMQFESSSYEGYFLASEKERDLFKLILKKEDELGDRSIMFTVQNED; False
IL-18 variant K53G, S55P, R104K, H109Y (ligand) YFGKLESKLSVIRNLNDQVLFIDQGNRPLFEDMTDSDMRDNAPRTIFIISMYGDPQPRGMAVTISVKSEKISTLSSENKIISFKEMNPPDNIKDTKSDIIFFQKSVPGYDNKMQFESSSYEGYFLASEKERDLFKLILKKEDELGDRSIMFTVQNED; False
IL-18 variant T34N, S36N, D40E, N41G, K53S, S55Q, R104N, H109Y (ligand) YFGKLESKLSVIRNLNDQVLFIDQGNRPLFEDMNDNDMREGAPRTIFIISMYSDQQPRGMAVTISVKSEKISTLSSENKIISFKEMNPPDNIKDTKSDIIFFQNSVPGYDNKMQFESSSYEGYFLASEKERDLFKLILKKEDELGDRSIMFTVQNED; True
IL-18 variant K53H, S55M, T63S (ligand) YFGKLESKLSVIRNLNDQVLFIDQGNRPLFEDMTDSDMRDNAPRTIFIISMYHDMQPRGMAVSISVKSEKISTLSSENKIISFKEMNPPDNIKDTKSDIIFFQRSVPGHDNKMQFESSSYEGYFLASEKERDLFKLILKKEDELGDRSIMFTVQNED; False
IL-18 variant S36E, D37E, D40R, N41G, K53Y, S55F (ligand) YFGKLESKLSVIRNLNDQVLFIDQGNRPLFEDMTDEEMRRGAPRTIFIISMYYDFQPRGMAVTISVKSEKISTLSSENKIISFKEMNPPDNIKDTKSDIIFFQRSVPGHDNKMQFESSSYEGYFLASEKERDLFKLILKKEDELGDRSIMFTVQNED; False
IL-18 variant K53D, S55T, H109I (ligand) YFGKLESKLSVIRNLNDQVLFIDQGNRPLFEDMTDSDMRDNAPRTIFIISMYDDTQPRGMAVTISVKSEKISTLSSENKIISFKEMNPPDNIKDTKSDIIFFQRSVPGIDNKMQFESSSYEGYFLASEKERDLFKLILKKEDELGDRSIMFTVQNED; False
IL-18 variant S36W, D37E, D40F, N41I, K53D, S55N (ligand) YFGKLESKLSVIRNLNDQVLFIDQGNRPLFEDMTDWEMRFIAPRTIFIISMYDDNQPRGMAVTISVKSEKISTLSSENKIISFKEMNPPDNIKDTKSDIIFFQRSVPGHDNKMQFESSSYEGYFLASEKERDLFKLILKKEDELGDRSIMFTVQNED; False
IL-18 variant K53L, S55G (ligand) YFGKLESKLSVIRNLNDQVLFIDQGNRPLFEDMTDSDMRDNAPRTIFIISMYLDGQPRGMAVTISVKSEKISTLSSENKIISFKEMNPPDNIKDTKSDIIFFQRSVPGHDNKMQFESSSYEGYFLASEKERDLFKLILKKEDELGDRSIMFTVQNED; False
IL-18 variant K53H, S55M, Q56H (ligand) YFGKLESKLSVIRNLNDQVLFIDQGNRPLFEDMTDSDMRDNAPRTIFIISMYHDMHPRGMAVTISVKSEKISTLSSENKIISFKEMNPPDNIKDTKSDIIFFQRSVPGHDNKMQFESSSYEGYFLASEKERDLFKLILKKEDELGDRSIMFTVQNED; False
IL-18 variant K53N, S55A, R104N, P107A, H109Y (ligand) YFGKLESKLSVIRNLNDQVLFIDQGNRPLFEDMTDSDMRDNAPRTIFIISMYNDAQPRGMAVTISVKSEKISTLSSENKIISFKEMNPPDNIKDTKSDIIFFQNSVAGYDNKMQFESSSYEGYFLASEKERDLFKLILKKEDELGDRSIMFTVQNED; False
IL-18 variant S36Q, D40T, K53P, S55L (ligand) YFGKLESKLSVIRNLNDQVLFIDQGNRPLFEDMTDQDMRTNAPRTIFIISMYPDLQPRGMAVTISVKSEKISTLSSENKIISFKEMNPPDNIKDTKSDIIFFQRSVPGHDNKMQFESSSYEGYFLASEKERDLFKLILKKEDELGDRSIMFTVQNED; True
